- experiment_description: gradient 5% acetonitrile 3 min, to 50% in 2 min, to 85% in 15 min, held 3 min, 100 µL/min
- condition_summary: column: Zorbax Extend-C18 2.1 x 50 mm; eluents: water / acetonitrile, 0.1% formic acid
experimental_readout: RP-LC retention time (s)

Example results:
CC(C)NC(=O)N1CCCC(Cn2cnc3cccnc32)C1 (stereo not given) | 610
CCOC(=O)CNC(=O)Nc1cc(F)c2nc(N3CCCC3)ccc2c1 | 590
Cc1ncc2c(n1)C[C@@H]1CC[C@H]2N1C(=O)c1ccccn1 | 603
COCc1noc([C@@H]2CN(C(=O)C3CC=CC3)C[C@H]2C(N)=O)n1 | 609
Cc1cc2nn(CC(=O)N3CCOCC3)c(=O)n2c(-c2cccc(Cl)c2)n1 | 708

P: CCC(C)NC(=O)CCn1c(=O)c2ccccc2n2c(=O)n(Cc3ccc(F)cc3)nc12 (stereo not given)
Q: Cn1ncc2c3ccccc3n(CC(=O)N3CCN(c4ccccn4)CC3)c2c1=O
Task: API: POST /compare with P and Q ; response names the item with higher RP-LC retention time. Lab note: record the label of whichever item you select.
Output: P
(P: 890 s, Q: 591 s)

====

- experiment_description: gradient 5% acetonitrile 3 min, to 50% in 2 min, to 85% in 15 min, held 3 min, 100 µL/min
- condition_summary: column: Zorbax Extend-C18 2.1 x 50 mm; eluents: water / acetonitrile, 0.1% formic acid
experimental_readout: RP-LC retention time (s)

COCCNc1c(-c2cccc(F)c2)nc2sc(C(=O)NC(C)C)c(C)n12 | 835
Cc1ccc(-c2nnc(SCc3cc(=O)n4oc(C)cc4n3)o2)cc1 | 759
O=C(NCc1nnnn1C1CCCCC1)c1cccs1 | 715
O=C(c1ccccc1)N1CCC(n2nc(-c3ccsc3)ccc2=O)CC1 | 780
CCN(CC)C(=O)CSc1nnc(-c2ccc3c(c2)OCCCO3)n1C(C)C | 770

a: Cc1nc2cc(-c3noc(COc4ccc(Cl)cc4C)n3)ccc2o1
b: COCCNC(=O)NCC1(c2ccccc2)CCOCC1
Task: Compare a and b and name the one whose reported RP-LC retention time is smaller. Please reply using the label of the selected record.
Output: b
(b: 615 s, a: 1180 s)

====

- experiment_description: gradient 5% acetonitrile 3 min, to 50% in 2 min, to 85% in 15 min, held 3 min, 100 µL/min
- condition_summary: column: Zorbax Extend-C18 2.1 x 50 mm; eluents: water / acetonitrile, 0.1% formic acid
experimental_readout: RP-LC retention time (s)

The following molecules have reported results that may help.
CCOC(=O)CNC(=O)NC12CC3CC(CC(C3)C1)C2 | 802
COc1ccccc1C1(CNC(=O)Cc2cn(C)c3ccccc23)CCOCC1 | 815
O=C(Cc1ccc(-c2ccc(OCCN3CCOCC3)cc2)cn1)NCc1ccccc1 | 621
COc1ccc(NC(=O)N2CCC(n3c(CC(C)C)nc4cccnc43)CC2)c(OC)c1 | 676
Cc1cccc(CNC(=O)C2CCN(S(=O)(=O)c3cc(C(=O)N4CCCC4)n(C)c3)CC2)c1 | 747
CCn1cnc(S(=O)(=O)N2CCC(C(=O)Nc3ccc(OC)c(OC)c3)CC2)c1 | 704
CCc1ccccc1NC(=O)Nc1ccc2nnc(C)n2c1 | 712
O=C(CN1C(=O)COc2ccc(C(=O)N3CCCCC3)cc21)NCc1ccco1 | 691

a: COCc1nncn1C1CCN(S(=O)(=O)c2cc(F)ccc2OC)CC1
b: COc1ccccc1N1CCN(c2cc(SCC(=O)Nc3c(C)cc(C)cc3C)ncn2)CC1
Task: Could you tell me which of these two has the smaller RP-LC retention time figure? First: a Second: b Please identify the chosen entry by its label.
Output: a
(a: 679 s, b: 1040 s)
